Data credit: paper PMC12434667

assay remarks: Monkey PK
Type: in vivo
measurement parameters: plasma, po, 1 mg/kg
recorded endpoint: AUC(0-t) (µM·h)
Numbers only, in µM·h.

-- ask Consider the compound C[C@]1(O)CCCN(c2nc(Nc3ccc(S(=O)(=O)N[C@@H]4CCN(CC5CCN(c6ccc(C7CCC(=O)NC7=O)cc6F)CC5)C[C@@H]4F)cc3F)ncc2C(F)(F)F)C1 (stereo partly shown) [Compound 37] and give its measured AUC(0-t).
-- reply 0.25

###

Please provide measured logD at 1 h for the entries that follow.
assay remarks: LogD
Type: physicochemical
measurement parameters: 1-octanol/phosphate buffer, pH 7.4
One number for each entry.

Examples with their reported logD at 1 h follow.
>>> observed("Cc1cc(S(=O)(=O)NCCO[C@H]2CC[C@H](CN3CCC(c4ccc5c(c4F)n(C)c(=O)n5C4CCC(=O)NC4=O)CC3)CC2)ccc1Nc1ncc(C(F)(F)F)c([C@H]2CC[C@@](C)(O)CC2)n1 (stereo partly drawn)")
4.6
>>> observed("Cc1cc(S(=O)(=O)NCCO[C@H]2CC[C@H](CN3CCC(c4ccc5c(c4)n(C)c(=O)n5C4CCC(=O)NC4=O)CC3)CC2)ccc1Nc1ncc(C(F)(F)F)c([C@H]2CC[C@@](C)(O)CC2)n1 (stereo partly drawn)")
4.1

Let us move to another entry and its logD at 1 h.
-- ask Dear colleague, I am looking for the recorded logD at 1 h of the following compound: [2H][C@@](C)(COC1CCC(CN2CCN(c3ccc4c(c3F)n(C)c(=O)n4C3CCC(=O)NC3=O)CC2)CC1)NS(=O)(=O)c1ccc(Nc2ncc(C(F)(F)F)c(N3CCC[C@](C)(O)C3)n2)c(C)c1 (stereo partly drawn)
-- reply 4.6
